- assay_overview: Stability of cannabinoid entourage and Vitamin E components of the powder concentrate by LCMSMS
- Assay type: physicochemical
- condition_notes: powder stored at 21-25° C.; 18 days
Everything with Stability of Plant-Derived Cannabinoid Compounds in Powder Concentrate lower than 0.1 mg/g powder is F; everything else, including exactly 0.1 mg/g powder, is T.

CCCCCc1cc(O)c(C/C=C(\C)CCC=C(C)C)c(O)c1 [CBG, cannabigerol]: T
CCCCCc1cc(O)c2c(c1)OC(C)(C)[C@@H]1CCC(C)=C[C@@H]21 [D9 THC, delta-9-tetrahydrocannabinol, reference compound]: T
CCCCCc1cc(O)c2c(c1)OC(C)(C)c1ccc(C)cc1-2 [CBN, cannabinol]: T
CCCCCc1cc2c(c(O)c1C(=O)O)[C@@H]1C=C(C)CC[C@H]1C(C)(C)O2 [D9 THCA, delta-9-tetrahydrocannabinolic acid]: T
CCCc1cc(O)c2c(c1)OC(C)(C)[C@@H]1CCC(C)=C[C@@H]21 [THCV, delta-9-tetrahydrocannabivarin]: T
C=C(C)[C@@H]1CCC(C)=C[C@H]1c1c(O)cc(CCCCC)cc1O [CBD, cannabidiol, reference compound]: T
CCCCCc1cc(O)c2c(c1)OC1(C)CCC3C1C2C3(C)C (stereo not shown) [CBL, cannabicyclol]: F
C=C(C)[C@@H]1CCC(C)=C[C@H]1c1c(O)cc(CCC)cc1O [CBDV, cannabidivarin]: F
C=C(C)[C@@H]1CCC(C)=C[C@H]1c1c(O)cc(CCCCC)c(C(=O)O)c1O [CBDA, cannabidiolic acid]: T

In the following, a different molecule is considered.
Qu. Can CCCCCc1cc(O)c2c(c1)OC(C)(CCC=C(C)C)C=C2 (stereo not shown) [CBC, cannabichromene] be said to have Stability of Plant-Derived Cannabinoid Compounds in Powder Concentrate at or above 0.1 mg/g powder?
Ans. F
